# credit: ChEMBL document CHEMBL4002619

assay: Inhibition of GLUT in HEK293 cells assessed as reduction in 2-deoxyglucose uptake at 100 uM pretreated for 10 mins followed by 2-deoxyglucose addition in presence of choline buffer measured after 1 hr by resazurin dye based fluorescence assay; assay type: cell-based; conditions: human
readout_label: inhibition (INH)

INSERT INTO assay_data (molecule, readout_label, value_measured) VALUES
  ('CCOc1ccc(CCC(=O)c2c(O)cc(O)c([C@@H]3O[C@H](CO)[C@@H](O)[C@H](O)[C@H]3O)c2O)cc1', 'inhibition (INH)', 'Not Active'),
  ('CCOc1ccc(CCC(=O)c2c(O)cc(O)cc2O)cc1', 'inhibition (INH)', 'Active'),
  ('Cc1ccc(CCC(=O)c2c(O)cc(O)cc2O)cc1', 'inhibition (INH)', 'Active'),
  ('O=C(/C=C/c1ccc(Br)cc1)c1c(O)cc(O)cc1O [4-BROMO-2'',4'',6''-TRIHYDROXYCHALCONE]', 'inhibition (INH)', 'Active');

Please look at the following molecule next.
Inquiry: Identify inhibition (INH) associated with the molecule `COc1ccc(CCC(=O)c2c(O)cc(O)c([C@@H]3O[C@H](CO)[C@@H](O)[C@H](O)[C@H]3O)c2O)cc1`
Reply text: Not Active
